Tested on: Priestia megaterium
Assay: Antibacterial activity against Bacillus megaterium Bm11 after 18 to 20 hrs by microbroth dilution method
Format: functional
Where a SMILES comes first, the peptide text is derived from it.
Measured MIC of individual entries
parameter_measured: MIC

- compound: "CC[C@H](C)[C@H](NC(=O)[C@H](CCCNC(=N)N)NC(=O)CNC(=O)[C@H](CC(C)C)NC(=O)[C@H](Cc1ccccc1)NC(=O)[C@H](CCCCN)NC(=O)[C@H](CO)NC(=O)[C@H](Cc1ccccc1)NC(=O)[C@H](Cc1c[nH]c2ccccc12)NC(=O)[C@H](CCC(N)=O)NC(=O)[C@@H](NC(=O)[C@@H](N)Cc1ccccc1)C(C)C)C(=O)N[C@@H](CC(C)C)C(N)=O"
  result: "1.5 µM"
- compound: "CC[C@H](C)[C@H](NC(=O)[C@H](CCCNC(=N)N)NC(=O)CNC(=O)[C@H](CC(C)C)NC(=O)[C@H](Cc1ccccc1)NC(=O)[C@H](CCCCN)NC(=O)[C@H](CO)NC(=O)[C@H](Cc1ccccc1)NC(=O)[C@H](Cc1c[nH]c2ccccc12)NC(=O)[C@H](CCCNC(=N)N)NC(=O)[C@@H](NC(=O)[C@@H](N)Cc1ccccc1)C(C)C)C(=O)N[C@@H](CC(C)C)C(N)=O (H-FVRWFSKFLGRIL-NH2)"
  result: "3 µM"
- compound: "CC[C@@H](C)[C@@H](NC(=O)[C@@H](CCCNC(=N)N)NC(=O)CNC(=O)[C@@H](CC(C)C)NC(=O)[C@@H](Cc1ccccc1)NC(=O)[C@@H](CCCCN)NC(=O)[C@@H](CO)NC(=O)[C@@H](Cc1ccccc1)NC(=O)[C@@H](Cc1c[nH]c2ccccc12)NC(=O)[C@@H](CCC(N)=O)NC(=O)[C@H](NC(=O)[C@H](N)Cc1ccccc1)C(C)C)C(=O)N[C@H](CC(C)C)C(N)=O"
  result: "1.5 µM"
- compound: "CC[C@H](C)[C@H](NC(=O)[C@H](CCCNC(=N)N)NC(=O)CNC(=O)[C@H](CC(C)C)NC(=O)[C@H](Cc1ccccc1)NC(=O)[C@H](CCCNC(=N)N)NC(=O)[C@H](CO)NC(=O)[C@H](Cc1ccccc1)NC(=O)[C@H](Cc1c[nH]c2ccccc12)NC(=O)[C@H](CCC(N)=O)NC(=O)[C@@H](NC(=O)[C@@H](N)Cc1ccccc1)C(C)C)C(=O)N[C@@H](CC(C)C)C(N)=O (H-FVQWFSRFLGRIL-NH2)"
  result: "6 µM"
- compound: "CC[C@H](C)[C@H](NC(=O)[C@H](CCCCN)NC(=O)CNC(=O)[C@H](CC(C)C)NC(=O)[C@H](Cc1ccccc1)NC(=O)[C@H](CCCCN)NC(=O)[C@H](CO)NC(=O)[C@H](Cc1ccccc1)NC(=O)[C@H](Cc1c[nH]c2ccccc12)NC(=O)[C@H](CCC(N)=O)NC(=O)[C@@H](NC(=O)[C@@H](N)Cc1ccccc1)C(C)C)C(=O)N[C@@H](CC(C)C)C(N)=O (H-FVQWFSKFLGKIL-NH2)"
  result: "3 µM"

###

This listing pairs compounds with measured MIC.
Tested on: Priestia megaterium
Assay: Antibacterial activity against Bacillus megaterium Bm11 after 18 to 20 hrs by microbroth dilution method
Format: functional
Where a SMILES comes first, the peptide text is derived from it. [ ]: non-standard residue; d: D form. Orn = NCCC[C@H](N)C(=O)O

- compound: "CC[C@H](C)[C@H](NC(=O)[C@H](CCCNC(=N)N)NC(=O)[C@H]1CCCN1C(=O)[C@H](CC(C)C)NC(=O)[C@H](Cc1ccccc1)NC(=O)[C@H](CCCCN)NC(=O)[C@H](CO)NC(=O)[C@H](Cc1ccccc1)NC(=O)[C@H](Cc1c[nH]c2ccccc12)NC(=O)[C@@H]1CCCN1C(=O)[C@@H](NC(=O)[C@@H](N)Cc1ccccc1)C(C)C)C(=O)N[C@@H](CC(C)C)C(N)=O"
  test_system: "Priestia megaterium"
  MIC, µM: 3
- compound: "CC[C@@H](C)[C@@H](NC(=O)[C@H](N)CC(C)C)C(=O)N[C@H](CCCNC(=N)N)C(=O)NCC(=O)N[C@H](CC(C)C)C(=O)N[C@H](Cc1ccccc1)C(=O)N[C@H](CCCCN)C(=O)N[C@H](CO)C(=O)N[C@H](Cc1ccccc1)C(=O)N[C@H](Cc1c[nH]c2ccccc12)C(=O)N[C@H](CCC(N)=O)C(=O)N[C@@H](C(=O)N[C@H](Cc1ccccc1)C(N)=O)C(C)C"
  test_system: "Priestia megaterium"
  MIC, µM: 1.5
- compound: "CC(C)C[C@H](NC(=O)[C@H](Cc1c[nH]c2ccccc12)NC(=O)[C@H](CCCNC(=N)N)NC(=O)CNC(=O)[C@H](CC(C)C)NC(=O)[C@H](CC(C)C)NC(=O)[C@H](CCCCN)NC(=O)[C@H](CO)NC(=O)[C@H](CC(C)C)NC(=O)[C@H](Cc1c[nH]c2ccccc12)NC(=O)[C@H](CCC(N)=O)NC(=O)[C@H](CC(C)C)NC(=O)[C@@H](N)CC(C)C)C(N)=O (H-LLQWLSKLLGRWL-NH2)"
  test_system: "Priestia megaterium"
  MIC, µM: 3
- compound: "CC[C@H](C)[C@H](NC(=O)[C@H](CCCN)NC(=O)CNC(=O)[C@H](CC(C)C)NC(=O)[C@H](Cc1ccccc1)NC(=O)[C@H](CCCCN)NC(=O)[C@H](CO)NC(=O)[C@H](Cc1ccccc1)NC(=O)[C@H](Cc1c[nH]c2ccccc12)NC(=O)[C@@H]1CCCN1C(=O)[C@@H](NC(=O)[C@@H](N)Cc1ccccc1)C(C)C)C(=O)N[C@@H](CC(C)C)C(N)=O (H-FVPWFSKFLG[Orn]IL-NH2)"
  test_system: "Priestia megaterium"
  MIC, µM: 6
- compound: "CC[C@H](C)[C@H](NC(=O)[C@H](CCCNC(=N)N)NC(=O)CNC(=O)[C@H](CC(C)C)NC(=O)[C@H](Cc1ccccc1)NC(=O)[C@H](CCCNC(=N)N)NC(=O)[C@H](CO)NC(=O)[C@H](Cc1ccccc1)NC(=O)[C@H](Cc1c[nH]c2ccccc12)NC(=O)[C@H](CCCNC(=N)N)NC(=O)[C@@H](NC(=O)[C@@H](N)Cc1ccccc1)C(C)C)C(=O)N[C@@H](CC(C)C)C(N)=O (H-FVRWFSRFLGRIL-NH2)"
  test_system: "Priestia megaterium"
  MIC, µM: 3
